Values were extracted from paper PMC5612938.

Measured IC50 values are reported for all entries that follow.
target: Thrombin (from human plasma) (Homo sapiens, UniProt P00734); construct: Thrombin (from human plasma); test: on-chip thrombin inhibition assay (S-2238 hydrolysis, absorbance 405 nm); conditions: for thrombin
Where a name gives a salt, the structure may show the parent alone.
Give just the number in µM; leave the unit off.

Observe how each entry below is paired with its result.
NCCc1ccc(S(=O)(=O)F)cc1 [AEBSF-HCl, reference compound]    3.91
O=C(/C=C/c1ccc(O)c2oc(-c3ccc(O)c(O)c3)cc12)O[C@H](Cc1ccc(O)c(O)c1)C(=O)O    180
O=C(/C=C/c1ccc(O)c2c1[C@H](C(=O)O[C@H](Cc1ccc(O)c(O)c1)C(=O)O)[C@@H](c1ccc(O)c(O)c1)O2)O[C@H](Cc1ccc(O)c(O)c1)C(=O)O    81.9

Next molecule, IC50 to be filled in.
input: Can you share its IC50? I mean this molecule: O=C(/C=C/c1ccc(O)c(O)c1)O[C@H](Cc1ccc(O)c(O)c1)C(=O)O
output: 92

----------
Target: Thrombin (from human plasma) (Homo sapiens, UniProt P00734)
Construct: Thrombin (from human plasma); purchased Sigma-Aldrich; host or cells: human plasma
Experiment: on-chip affinity screening, binding degree by LC-MS peak area vs protein-free control (thrombin)
Conditions: for thrombin; [(As − Ac)/As] × 100, sample vs protein-free control, EIC peak area
Description: In addition to quality assessment, the microfluidic chip can also function as “affinity chromatography” to identify bioactive constituents from botanical drugs in a convenient and efficient manner. […] Peak areas were obtained from the extracted ion chromatography (EIC) in an ion-trap mass spectrometry (IT-MS), and binding degree (binding degree % = [(As − Ac)/As] × 100, where As and Ac were the peak area in the sample and control, respectively) was calculated to indicate binding specificity. […]
Quick reference for Binding degree (%) among some compounds
Write it as a number; the unit % goes unstated.

O=C(O)C(O)Cc1ccc(O)c(O)c1 (centres unmarked) [Danshensu]    50.9

Continue with the next compound.
input: I have this compound here, O=C(/C=C/c1ccc(O)c2c1[C@H](C(=O)O[C@H](Cc1ccc(O)c(O)c1)C(=O)O)[C@@H](c1ccc(O)c(O)c1)O2)O[C@H](Cc1ccc(O)c(O)c1)C(=O)O [Salvianolic acid B] , and I need its recorded Binding degree (%).
output: 34.9

----------
target: Thrombin (from human plasma) (Homo sapiens, UniProt P00734); construct: Thrombin (from human plasma); purchased Sigma-Aldrich; host or cells: human plasma; experiment: on-chip affinity screening, binding degree by LC-MS peak area vs protein-free control (thrombin); settings: for thrombin; [(As − Ac)/As] × 100, sample vs protein-free control, EIC peak area
Marks after values point to notes of the source that are not given here.
propertyMeasured: Binding degree (%)

CC(C)=CCC[C@](C)(O[C@@H]1O[C@H](CO)[C@@H](O)[C@H](O)[C@H]1O)[C@H]1CC[C@]2(C)[C@@H]1[C@H](O)C[C@@H]1[C@@]3(C)CC[C@H](O)C(C)(C)[C@@H]3[C@@H](O[C@@H]3O[C@H](CO)[C@@H](O)[C@H](O)[C@H]3O)C[C@]12C [Ginsenoside Rg1]    20.6^c %

input: Name the recorded Binding degree (%) for O=C(/C=C/c1ccc(O)c(O)c1)O[C@H](Cc1ccc(O)c(O)c1)C(=O)O .
output: 67.4^c %

input: Which measured Binding degree (%) value corresponds to O=C(/C=C/c1ccc(O)c2oc(-c3ccc(O)c(O)c3)cc12)O[C@H](Cc1ccc(O)c(O)c1)C(=O)O ?
output: 100^c %
